System: Mycobacterium Bovis BCG infecting human macrophages THP-1
Assay type: cell-based
Settings: Time 1 day; compound concentration 2 µg/ml
Kind request: treat 10 CFUs per mL as inclusive, so CFU x10^4 at 10 CFUs per mL or higher is met, anything lower is not met.

compound="CCCCCCNC(=O)c1cc([N+](=O)[O-])cc([N+](=O)[O-])c1 [Compound 7b, N-hexyl-3.5-dinitrobenzamide]" discrete_label="not met"
compound="CCCCCCCCCCOC(=O)c1cc([N+](=O)[O-])cc([N+](=O)[O-])c1 [Compound 3d, Decyl 3,5-dinitrobenzoate]" discrete_label=met
compound="CCCCCCCCCCCCCCNC(=O)c1cc([N+](=O)[O-])cc([N+](=O)[O-])c1 [Compound 7f, N-tetradecyl-3.5-dinitrobenzamide]" discrete_label=met
compound="CCCCCCCCCCNC(=O)c1cc([N+](=O)[O-])cc([N+](=O)[O-])c1 [Compound 7d, N-decyl-3.5-dinitrobenzamide]" discrete_label="not met"
compound=CCCCCCOC(=O)c1cc([N+](=O)[O-])cc([N+](=O)[O-])c1 discrete_label=met
compound=CCCCCCCCCCCCCCOC(=O)c1cc([N+](=O)[O-])cc([N+](=O)[O-])c1 discrete_label=met

----------
Recorded Degradation (%) 168h, one value per entry.
Test: Chemical stability in phosphate buffer pH 7.4
Conditions: 168h
readout label: Degradation (%) 168h

compound="CCCCCCCCCCCCNC(=O)c1ccccc1 [Compound 5e, N-dodecyl-benzamide]" value_unit=% measured=0
compound="CCCCNC(=O)c1cc([N+](=O)[O-])cc([N+](=O)[O-])c1 [Compound 7a, N-butyl-3.5-dinitrobenzamide]" value_unit=% measured=0
compound="CCCCOC(=O)c1ccccc1 [Compound 1a, Butyl benzoate]" value_unit=% measured=1
compound="CCCCNC(=O)c1ccc([N+](=O)[O-])cc1 [Compound 6a, N-butyl-4-nitrobenzamide]" value_unit=% measured=0
compound="CCCCCCCCCCCCOC(=O)c1ccccc1 [Compound 1e, Dodecyl benzoate]" value_unit=% measured=0
compound="CCCCCCCCCCCCOC(=O)c1cc([N+](=O)[O-])cc([N+](=O)[O-])c1 [Compound 3e]" value_unit=% measured=1
compound="CCCCCCCCCCCCOC(=O)c1cc([N+](=O)[O-])cc(C(F)(F)F)c1 [Compound 4e]" value_unit=% measured=6
compound="CCCCNC(=O)c1ccccc1 [Compound 5a, N-butyl-benzamide]" value_unit=% measured=0
compound="CCCCCCCCNC(=O)c1ccccc1 [Compound 5c, N-octyl-benzamide]" value_unit=% measured=0
compound="CCCCNC(=O)c1cc([N+](=O)[O-])cc(C(F)(F)F)c1 [Compound 8a]" value_unit=% measured=0
compound="CCCCCCCCCCCCNC(=O)c1cc([N+](=O)[O-])cc([N+](=O)[O-])c1 [Compound 7e, N-dodecyl-3.5-dinitrobenzamide]" value_unit=% measured=0
compound="CCCCCCCCCCCCNC(=O)c1ccc([N+](=O)[O-])cc1 [Compound 6e, N-dodecyl-4-nitrobenzamide]" value_unit=% measured=0
compound="CCCCCCCCOC(=O)c1cc([N+](=O)[O-])cc([N+](=O)[O-])c1 [Compound 3c]" value_unit=% measured=2
compound="CCCCOC(=O)c1cc([N+](=O)[O-])cc([N+](=O)[O-])c1 [Compound 3a]" value_unit=% measured=40
compound="CCCCCCCCCCCCNC(=O)c1cc([N+](=O)[O-])cc(C(F)(F)F)c1 [Compound 8e]" value_unit=% measured=0
compound="CCCCCCCCOC(=O)c1cc([N+](=O)[O-])cc(C(F)(F)F)c1 [Compound 4c]" value_unit=% measured=3
compound="CCCCOC(=O)c1cc([N+](=O)[O-])cc(C(F)(F)F)c1 [Compound 4a]" value_unit=% measured=35
compound="CCCCCCCCOC(=O)c1ccccc1 [Compound 1c, Octyl benzoate]" value_unit=% measured=0
compound="CCCCCCCCNC(=O)c1cc([N+](=O)[O-])cc(C(F)(F)F)c1 [Compound 8c]" value_unit=% measured=0
compound="CCCCCCCCOC(=O)c1ccc([N+](=O)[O-])cc1 [Compound 2c, Octyl 4-nitrobenzoate]" value_unit=% measured=3
compound="CCCCCCCCNC(=O)c1ccc([N+](=O)[O-])cc1 [Compound 6c, N-octyl-4-nitrobenzamide]" value_unit=% measured=0

----------
Assay: Cytotoxicity assay in THP-1 cells
Assay type: cell-based, human
Conditions: human; THP-1 cells; lethal concentration for 50% of the cell population; read-out: LC50 (the source's name)
Recorded log10 CC50, one value per entry.
readout label: log10 CC50 (log10 of the value in µg/mL)

molecule=CCCCOC(=O)c1cc([N+](=O)[O-])cc([N+](=O)[O-])c1 readout_label="log10 CC50" measured=2.66
molecule="CCCCCCCCNC(=O)c1cc([N+](=O)[O-])cc([N+](=O)[O-])c1 [Compound 7c, N-octyl-3.5-dinitrobenzamide]" readout_label="log10 CC50" measured=1.99
molecule="CCCCCCCCCCCCNC(=O)c1cc([N+](=O)[O-])cc([N+](=O)[O-])c1 [Compound 7e, N-dodecyl-3.5-dinitrobenzamide]" readout_label="log10 CC50" measured=1.86
molecule="CCCCCCCCOC(=O)c1ccccc1 [Compound 1c, Octyl benzoate]" readout_label="log10 CC50" measured=3.22
molecule="CCCCCCCCCCCCCCNC(=O)c1cc([N+](=O)[O-])cc([N+](=O)[O-])c1 [Compound 7f, N-tetradecyl-3.5-dinitrobenzamide]" readout_label="log10 CC50" measured=2.52

----------
Tested on: Mycobacterium tuberculosis H37Rv
Assay: MIC and MBC by broth microdilution against M. tuberculosis H37Rv
Type: cell-based, Mycobacterium tuberculosis H37Rv (ATCC 27294)
Conditions: Mycobacterium tuberculosis, H37RV, M. tuberculosis H37Rv; Table 3; read-out: MBC
readout label: MBC (µg/mL)

compound=CCCCCCCCCCNC(=O)c1cc([N+](=O)[O-])cc(C(F)(F)F)c1 readout_label=MBC value_unit=µg/mL measured=0.5
compound="CCCCCCCCNC(=O)c1ccccc1 [Compound 5c, N-octyl-benzamide]" readout_label=MBC value_unit=µg/mL measured=32
compound="NNC(=O)c1ccncc1 [INH, isoniazid, reference compound]" readout_label=MBC value_unit=µg/mL measured=0.05
compound="CCCCNC(=O)c1ccc([N+](=O)[O-])cc1 [Compound 6a, N-butyl-4-nitrobenzamide]" readout_label=MBC value_unit=µg/mL measured=256
compound=CCCCNC(=O)c1cc([N+](=O)[O-])cc(C(F)(F)F)c1 readout_label=MBC value_unit=µg/mL measured=2

----------
Tested on: Mycobacterium smegmatis homogenate
Experiment: Stability in Mycobacterium smegmatis homogenate (enzymatic hydrolysis)
Details: Mycobacterium smegmatis homogenate, 37°C; 48h
just bin them by Degradation (%) 48h: class 0 = under 5%, class 1 = from 5% up to 30%, class 2 = 30% and over

molecule="CCCCCCNC(=O)c1ccc([N+](=O)[O-])cc1 [Compound 6b, N-hexyl-4-nitrobenzamide]" discrete_label="class 2"
molecule=CCCCCCCCCCCCCCOC(=O)c1cc([N+](=O)[O-])cc([N+](=O)[O-])c1 discrete_label="class 1"
molecule="CCCCCCCCCCCCNC(=O)c1ccccc1 [Compound 5e, N-dodecyl-benzamide]" discrete_label="class 0"
molecule="CCCCCCCCCCCCNC(=O)c1ccc([N+](=O)[O-])cc1 [Compound 6e, N-dodecyl-4-nitrobenzamide]" discrete_label="class 0"
molecule=CCCCCCCCNC(=O)c1cc([N+](=O)[O-])cc(C(F)(F)F)c1 discrete_label="class 1"
molecule="CCCCNC(=O)c1cc([N+](=O)[O-])cc([N+](=O)[O-])c1 [Compound 7a, N-butyl-3.5-dinitrobenzamide]" discrete_label="class 2"
molecule=CCCCCCCCCCCCOC(=O)c1cc([N+](=O)[O-])cc([N+](=O)[O-])c1 discrete_label="class 1"
molecule="CCCCCCCCCCOC(=O)c1cc([N+](=O)[O-])cc([N+](=O)[O-])c1 [Compound 3d, Decyl 3,5-dinitrobenzoate]" discrete_label="class 1"
molecule=CCCCCCOC(=O)c1ccc([N+](=O)[O-])cc1 discrete_label="class 2"
molecule="CCCCCCNC(=O)c1ccccc1 [Compound 5b, N-hexyl-benzamide]" discrete_label="class 0"
molecule="CCCCCCCCOC(=O)c1ccc([N+](=O)[O-])cc1 [Compound 2c, Octyl 4-nitrobenzoate]" discrete_label="class 2"
molecule=CCCCCCCCCCOC(=O)c1cc([N+](=O)[O-])cc(C(F)(F)F)c1 discrete_label="class 1"
molecule=CCCCNC(=O)c1cc([N+](=O)[O-])cc(C(F)(F)F)c1 discrete_label="class 2"
molecule="CCCCCCCCCCCCCCCCNC(=O)c1cc([N+](=O)[O-])cc([N+](=O)[O-])c1 [Compound 7g, N-hexadecyl-3.5-dinitrobenzamide]" discrete_label="class 0"
molecule="CCCCCCCCCCCCCCCCOC(=O)c1cc([N+](=O)[O-])cc([N+](=O)[O-])c1 [Compound 3g, Hexadecyl 3,5-dinitrobenzoate]" discrete_label="class 0"
molecule="CCCCNC(=O)c1ccccc1 [Compound 5a, N-butyl-benzamide]" discrete_label="class 0"
molecule="CCCCCCCCCCCCCCNC(=O)c1cc([N+](=O)[O-])cc([N+](=O)[O-])c1 [Compound 7f, N-tetradecyl-3.5-dinitrobenzamide]" discrete_label="class 0"
molecule=CCCCCCCCOC(=O)c1cc([N+](=O)[O-])cc(C(F)(F)F)c1 discrete_label="class 1"
molecule=CCCCCCCCOC(=O)c1cc([N+](=O)[O-])cc([N+](=O)[O-])c1 discrete_label="class 1"
molecule=CCCCCCCCCCCCNC(=O)c1cc([N+](=O)[O-])cc(C(F)(F)F)c1 discrete_label="class 0"
molecule=CCCCOC(=O)c1cc([N+](=O)[O-])cc([N+](=O)[O-])c1 discrete_label="class 2"
molecule="CCCCCCCCCCCCNC(=O)c1cc([N+](=O)[O-])cc([N+](=O)[O-])c1 [Compound 7e, N-dodecyl-3.5-dinitrobenzamide]" discrete_label="class 0"
molecule="CCCCCCOC(=O)c1ccccc1 [Compound 1b, Hexyl benzoate]" discrete_label="class 2"
molecule=CCCCCCNC(=O)c1cc([N+](=O)[O-])cc(C(F)(F)F)c1 discrete_label="class 1"
molecule="CCCCCCCCOC(=O)c1ccccc1 [Compound 1c, Octyl benzoate]" discrete_label="class 2"
molecule="CCCCNC(=O)c1ccc([N+](=O)[O-])cc1 [Compound 6a, N-butyl-4-nitrobenzamide]" discrete_label="class 2"
molecule=CCCCCCOC(=O)c1cc([N+](=O)[O-])cc(C(F)(F)F)c1 discrete_label="class 1"
molecule=CCCCCCCCCCNC(=O)c1cc([N+](=O)[O-])cc(C(F)(F)F)c1 discrete_label="class 0"
molecule=CCCCCCOC(=O)c1cc([N+](=O)[O-])cc([N+](=O)[O-])c1 discrete_label="class 2"
